Tested on: release of FSH
assay.name: Release of FSH in rats after sc injection
Type: in vivo
assay.conditions: 60 min. after sc injection, 300 ng, LHRH = 100
Non-standard residues stand in square brackets, D forms with d. Residues, ends and D or L forms follow the SMILES beside them. pGlu = O=C1CC[C@@H](C(=O)O)N1
attribute.measured: FSH % change (%)
Value expressed in %; do not type the unit.

CC(C)C[C@H](NC(=O)CNC(=O)[C@H](Cc1c[nH]cn1)NC(=O)[C@H](CO)NC(=O)[C@H](Cc1c[nH]c2ccccc12)NC(=O)[C@H](Cc1c[nH]cn1)NC(=O)[C@@H]1CCC(=O)N1)C(=O)N[C@@H](CC(C)C)C(=O)N1CCC[C@H]1C(=O)NCC(N)=O [[His^5 Leu^8]--LHRH] ([pGlu]HWSHGLLPG-NH2)    44

Turning to the following compound.
Returns the measured FSH % change for the input compound. Input: NC(=O)CNC(=O)[C@@H]1CCCN1C(=O)[C@H](Cc1ccc(O)cc1)NC(=O)[C@H](Cc1c[nH]c2ccccc12)NC(=O)CNC(=O)[C@H](Cc1ccc(O)cc1)NC(=O)[C@H](CO)NC(=O)[C@H](Cc1c[nH]c2ccccc12)NC(=O)[C@H](Cc1c[nH]cn1)NC(=O)[C@@H]1CCC(=O)N1 [[Trp^7 Tyr^8]--LHRH] ([pGlu]HWSYGWYPG-NH2) 35
